meta.source: ChEMBL document CHEMBL1201862

test system: MDA-MB-435; test: NCI tumour cell line growth inhibition, 48 h
Activity calls are given as the source filed them. Rule as the data show it: active = GI50 up to about 1.1 µM and inactive = higher.
Please answer using one outcome listed in active, inactive

Prompt: What classification did COc1ccc2c(c1)C(=O)OCCC2 end up with in this test?
Completion: inactive

Next:
Prompt: What classification did Cc1nnc(SCc2nc(C#N)c(C#N)nc2CSc2nnc(C)s2)s1 end up with in this test?
Completion: inactive

Prompt: Note, next up: NC(=S)NC/C=C/Cl
Completion: inactive

Prompt: Note, next up: CC1(O)CC(=O)c2c(cc3ccc(-c4c5c(c(O)c6c(O)cccc46)C(=O)CC(C)(O)C5)c(O)c3c2O)C1 (stereo not drawn)
Completion: active

Prompt: Note, next up: CCCSc1cc(Cl)c(C)cc1S(=O)(=O)n1ccnc1OCCCN(C)C
Completion: inactive

Prompt: Note, next up: CSc1nc(=O)n(CCC#N)nc1SC
Completion: inactive

Prompt: Note, next up: COc1ccc(/C=C2/CSCC3=C2N=C(S)NC3c2ccc(OC)c(OC)c2OC)c(OC)c1OC (stereo not drawn)
Completion: inactive

Prompt: Note, next up: COc1c2c(nc3ccccc13)-c1cc(C(CC(=O)OC(C)(C)C)C(=O)OC(C)C)c(CO)c(=O)n1C2 (stereo not drawn)
Completion: inactive

Prompt: Note, next up: O=C1c2cccc([N+](=O)[O-])c2C(=O)N1Cc1ccccc1
Completion: inactive

Prompt: Note, next up: COc1ccc(-c2cn3c(nc4ccccc43)c(/C=C/c3cccs3)n2)cc1
Completion: inactive

Prompt: Note, next up: COc1cc([C@@H]2c3cc4c(cc3[C@@H](Nc3ccc(C(=O)N[C@H]5CCc6cc(OC)c(OC)c(OC)c6-c6ccc(SC)c(=O)cc65)cc3)[C@H]3COC(=O)[C@H]23)OCO4)cc(OC)c1O
Completion: active

Prompt: Note, next up: Nc1ncc2c(n1)-c1ccccc1OC2N1CCCCC1 (stereo not drawn)
Completion: inactive

Prompt: Note, next up: N#CC1C(=S)NC(c2ccccc2)=CC12CCCCC2 (stereo not drawn)
Completion: inactive
